Method description: viability loss in pontine glioma line – cell-based, SU-DIPG-XIII, MIPE4.0, CellTiter-Glo, qHTS, dose response (AID 1347061);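 also: cells exposed to compound for 48 hours before readout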
Test settings: CellTiter-Glo ATP luminescence
Results filed as inconclusive are left out. Active and inactive are the calls of the source. The limit is not given here; nearly all actives have AC50 up to about 37 µM. Peptide text beside a SMILES is read from it.
Entry note: the call must match one of label 1 (active), label 0 (inactive)

Completed entries (count: 6):
| Molecule | Answer label |
| --- | --- |
| CNC[C@H](O)c1cccc(O)c1 | label 0 |
| COC(=O)[C@H](Cc1ccccc1)NC(=O)[C@@H](N)CC(=O)O (H-Asp-Phe-OMe) | label 0 |
| COc1cc2nc(N3CCN(C(=O)C4CCCO4)CC3)nc(N)c2cc1OC (configuration not stated) | label 0 |
| O=C(O)c1cn(-c2ccc(F)cc2)c2cc(N3CCNCC3)c(F)cc2c1=O | label 0 |
| CC(C)c1ccc2oc3nc(N)c(C(=O)O)cc3c(=O)c2c1 | label 0 |
| Clc1ccccc1C(c1ccccc1)(c1ccccc1)n1ccnc1 | label 0 |

Dear colleague, could you share the recorded outcome for `COC(=O)[C@@H]1[C@H]2C[C@H]3c4[nH]c5ccccc5c4CCN3C[C@@H]2CC[C@@H]1O` when you have a moment? label 0

Dear colleague, could you share the recorded outcome for `O=c1[nH]c(=O)n([C@H]2C[C@H](O)[C@@H](CO)O2)cc1F` when you have a moment? label 1

Dear colleague, could you share the recorded outcome for `Cc1nc(-c2ccc(OCC(C)C)c(C#N)c2)sc1C(=O)O` when you have a moment? label 0

Dear colleague, could you share the recorded outcome for CC(C)NCC(O)COc1ccc(CCOCC2CC2)cc1 (configuration not stated) when you have a moment? label 0

Dear colleague, could you share the recorded outcome for `Cc1cn([C@H]2C=C[C@@H](CO)O2)c(=O)[nH]c1=O` when you have a moment? label 0

Dear colleague, could you share the recorded outcome for `CS(=O)(=O)Nc1ccc([N+](=O)[O-])cc1Oc1ccccc1` when you have a moment? label 0

Dear colleague, could you share the recorded outcome for `CC(C)c1nc(CN(C)C(=O)N[C@H](C(=O)N[C@@H](Cc2ccccc2)C[C@H](O)[C@H](Cc2ccccc2)NC(=O)OCc2cncs2)C(C)C)cs1` when you have a moment? label 0

Dear colleague, could you share the recorded outcome for Cc1ccccc1N1C(=O)c2cc(S(N)(=O)=O)c(Cl)cc2NC1C (configuration not stated) when you have a moment? label 0
